Property: max response; scope: individual compounds
molecular target: Retinoic acid receptor RXR-alpha (Homo sapiens); test: qHTS assay for small molecule antagonists of retinoid X receptor alpha signaling (AID 588546); conditions: HEK293T RXRa-UAS-bla, beta-lactamase ratio, antagonist mode;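 note: cells stimulated with 9-cis-retinoic acid as agonist; % is set by controls: 0 for no effect and ±100 for the full control effect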
Records with an inconclusive call do not appear.
The reply should be a number in %, with the unit left off.

Quick one: max response of CCOc1ccccc1C(N)=O ?
0.966

New cases:
Quick one: max response of CCCCCCCCOc1ccc(C(=O)c2ccccc2)c(O)c1 ?
-18.6

Please answer likewise for OC[C@H]1O[C@@H]2O[C@H]3[C@H](O)[C@@H](O)[C@@H](O[C@H]4[C@H](O)[C@@H](O)[C@@H](O[C@H]5[C@H](O)[C@@H](O)[C@@H](O[C@H]6[C@H](O)[C@@H](O)[C@@H](O[C@H]7[C@H](O)[C@@H](O)[C@@H](O[C@H]8[C@H](O)[C@@H](O)[C@@H](O[C@H]1[C@H](O)[C@H]2O)O[C@@H]8CO)O[C@@H]7CO)O[C@@H]6CO)O[C@@H]5CO)O[C@@H]4CO)O[C@@H]3CO
10.2

Please answer likewise for CN(C)C(=O)Nc1ccc(Cl)c(Cl)c1
4.3

Please answer likewise for C#C[C@]1(O)CC[C@H]2[C@@H]3CCC4=Cc5oncc5C[C@]4(C)[C@H]3CC[C@@]21C
-13.1

Please answer likewise for CCCCCCCC/C=C\CCCCCCCCN
8.18

Please answer likewise for CCCCCCCCCCCCCC(=O)OC(C)C
7.8

====

molecular target: Cytochrome P450 1A2 (Homo sapiens); assay: p450-cyp1a2 (AID 410); settings: recombinant CYP1A2, luciferin-ME demethylation, luminescence; series mostly up to 25.6 µM
Inconclusive results are not listed. The source made the active and inactive calls. The call rests on the fitted dose curve.
Respond with a class label; see active, inactive

The following molecules have reported results that may help.
Fill in: this test's call for Cl/C(=C\n1cncn1)c1ccc(Cl)cc1Cl is ___
active

Please answer likewise for NS(=O)(=O)Cc1noc2ccccc12
inactive

Please answer likewise for CCN(CC)CCNc1ccc(CO)c2sc3ccccc3c(=O)c12
active

Please answer likewise for N=C(N)N1CCc2ccccc2C1
inactive

Please answer likewise for COc1ccc(C(Cl)=C(c2ccc(OC)cc2)c2ccc(OC)cc2)cc1
inactive

New cases:
Fill in: this test's call for CC[C@H](c1ccc(O)cc1)[C@@H](CC)c1ccc(O)cc1 is ___
active

Please answer likewise for O=C1C(O)=C(O)C(=O)C(O)=C1O
inactive

Please answer likewise for CCCCc1cc2ccccc2c(OCCN(C)C)n1
active

====

tested on: KB-3-1; assay: Cytotoxic Profiling of Annotated Libraries Using Quantitative High-Throughput Screening (AID 1296008); conditions: Five cell lines viability, CellTiter-Glo ATP luminescence, 48-72 h; active compounds read low; note: % is set by controls: 0 for no effect and ±100 for the full control effect; nearly all actives have a fitted effect of over 60% in size
Inconclusive results are not listed.
experimental.endpoint: max response (%)
The reply should be a number in %, with the unit left off.

Quick one: max response of CC1(C)OC[C@@H]2O[C@@]3(C(=O)O)OC(C)(C)O[C@H]3[C@@H]2O1 ?
-15.5

Please examine the following record next.
Quick one: max response of OC[C@H]1O[C@@H]2O[C@H]3[C@H](O)[C@@H](O)[C@@H](O[C@H]4[C@H](O)[C@@H](O)[C@@H](O[C@H]5[C@H](O)[C@@H](O)[C@@H](O[C@H]6[C@H](O)[C@@H](O)[C@@H](O[C@H]7[C@H](O)[C@@H](O)[C@@H](O[C@H]8[C@H](O)[C@@H](O)[C@@H](O[C@H]1[C@H](O)[C@H]2O)O[C@@H]8CO)O[C@@H]7CO)O[C@@H]6CO)O[C@@H]5CO)O[C@@H]4CO)O[C@@H]3CO ?
3.96

Data provenance is PubChem BioAssay (NCATS).
